# System tested: human recombinant HDAC6 (Homo sapiens)
# Construct: purchased Calbiochem Inc. 382180
# Procedure text: HDAC enzyme activity inhibition assay (HDAC Fluorimetric Drug Discovery Kit), HDAC6
# Assay type: biochemical
# Conditions used: HDAC1 vs HDAC6
Quick rule: HDAC6 selectivity (fold) of at least 600 fold means YES, below that means NO.

[[record]]
molecular_string = "CCCN1CC(F)(C(=O)N(Cc2ccc(-c3nnc(C(F)F)o3)cn2)c2ccccc2)C1"
label_value = "YES"

[[record]]
molecular_string = "CC(C)(C)OC(=O)N1CC(F)(C(=O)N(Cc2ccc(-c3nnc(C(F)(F)F)o3)cn2)c2cccc(F)c2)C1"
label_value = "NO"

[[record]]
molecular_string = "CC(C)N1CCC(F)(C(=O)N(Cc2ccc(-c3nnc(C(F)F)o3)cc2F)c2ccccc2)CC1"
label_value = "NO"

[[record]]
molecular_string = "CN1CCC(F)(C(=O)N(Cc2ccc(-c3nnc(C(F)F)o3)cc2F)c2ccccc2)CC1"
label_value = "NO"

[[record]]
molecular_string = "O=C(N(Cc1ccc(-c2nnc(C(F)F)o2)cn1)c1cccc(F)c1)C1(F)CN(C2CCC2)C1"
label_value = "NO"

[[record]]
molecular_string = "CC(C)N1CCC(N2CC(F)(C(=O)N(Cc3ccc(-c4nnc(C(F)F)o4)cn3)c3cccc(F)c3)C2)CC1"
label_value = "YES"

[[record]]
molecular_string = "O=C(N(Cc1ccc(-c2nnc(C(F)F)o2)cn1)c1ccccc1)C1(F)CCN(C2CCC2)CC1"
label_value = "NO"

[[record]]
molecular_string = "O=C(N(Cc1ccc(-c2nnc(C(F)F)o2)cn1)c1ccccc1)C1(F)CCN(C2CCCC2)CC1"
label_value = "NO"

[[record]]
molecular_string = "O=C(N(Cc1ccc(-c2nnc(C(F)F)o2)cn1)c1ccccc1)C1(F)CN(CC2CCCCC2)C1"
label_value = "YES"

[[record]]
molecular_string = "CCC(=O)N1CC(F)(C(=O)N(Cc2ccc(-c3nnc(C(F)F)o3)cc2F)c2ccccc2)C1"
label_value = "NO"

[[record]]
molecular_string = "CN1CC(N2CC(F)(C(=O)N(Cc3ccc(-c4nnc(C(F)F)o4)cn3)c3cccc(F)c3)C2)C1"
label_value = "YES"


* * *

# System tested: human recombinant HDAC6 (Homo sapiens, UniProt Q9UBN7)
# Construct: purchased Calbiochem Inc. 382180
# Sequence (Q9UBN7 whole entry): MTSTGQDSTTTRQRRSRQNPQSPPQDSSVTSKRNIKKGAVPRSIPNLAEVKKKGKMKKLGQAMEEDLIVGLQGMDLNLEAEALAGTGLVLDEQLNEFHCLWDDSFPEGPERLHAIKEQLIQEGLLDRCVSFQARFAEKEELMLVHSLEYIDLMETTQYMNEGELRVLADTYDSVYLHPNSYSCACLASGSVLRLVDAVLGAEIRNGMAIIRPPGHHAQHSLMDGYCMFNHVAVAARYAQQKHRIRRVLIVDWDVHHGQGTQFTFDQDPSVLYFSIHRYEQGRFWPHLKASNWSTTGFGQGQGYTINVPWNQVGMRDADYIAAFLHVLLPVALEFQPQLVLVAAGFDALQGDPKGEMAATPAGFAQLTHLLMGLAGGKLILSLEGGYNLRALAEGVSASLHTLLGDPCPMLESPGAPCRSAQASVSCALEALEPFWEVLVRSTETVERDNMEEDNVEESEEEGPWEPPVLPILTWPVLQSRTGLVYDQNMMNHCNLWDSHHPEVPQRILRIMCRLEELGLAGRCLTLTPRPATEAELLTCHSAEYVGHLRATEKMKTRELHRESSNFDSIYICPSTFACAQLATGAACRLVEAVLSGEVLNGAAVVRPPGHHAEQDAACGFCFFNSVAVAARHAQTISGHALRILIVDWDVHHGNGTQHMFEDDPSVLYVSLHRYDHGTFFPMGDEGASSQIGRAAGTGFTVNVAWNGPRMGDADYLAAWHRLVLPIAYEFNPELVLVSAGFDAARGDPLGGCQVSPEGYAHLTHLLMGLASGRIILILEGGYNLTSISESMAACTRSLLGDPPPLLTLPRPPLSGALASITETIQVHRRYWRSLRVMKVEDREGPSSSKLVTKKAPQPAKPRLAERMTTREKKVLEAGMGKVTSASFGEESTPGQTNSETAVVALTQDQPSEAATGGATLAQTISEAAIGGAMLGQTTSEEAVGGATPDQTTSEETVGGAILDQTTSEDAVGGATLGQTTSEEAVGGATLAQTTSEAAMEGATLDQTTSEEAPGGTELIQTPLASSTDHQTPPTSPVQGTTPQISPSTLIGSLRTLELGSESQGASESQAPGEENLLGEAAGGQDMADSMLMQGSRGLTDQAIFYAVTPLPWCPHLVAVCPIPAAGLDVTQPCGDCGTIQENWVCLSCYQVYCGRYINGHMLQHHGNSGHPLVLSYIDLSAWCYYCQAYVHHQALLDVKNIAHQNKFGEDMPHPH
# Procedure text: HDAC enzyme activity inhibition assay (HDAC Fluorimetric Drug Discovery Kit), HDAC6
# Type: biochemical
# Conditions used: HDAC1 vs HDAC6
Test readout: HDAC6 selectivity (fold)

[[record]]
molecule = "CCCCN1CC(N2CCC(F)(C(=O)N(Cc3ccc(-c4nnc(C(F)F)o4)cn3)c3cccc(F)c3)CC2)C1"
reported = "1,361 fold"

[[record]]
molecule = "CC(C)CN1CC(N2CCC(F)(C(=O)N(Cc3ccc(-c4nnc(C(F)F)o4)cn3)c3cccc(F)c3)CC2)C1"
reported = "2,348 fold"

[[record]]
molecule = "CC(C)N1CC(N2CCC(F)(C(=O)N(Cc3ccc(-c4nnc(C(F)F)o4)cn3)c3cccc(F)c3)CC2)C1"
reported = "2,717 fold"

[[record]]
molecule = "CC(C)CN1CC(F)(C(=O)N(Cc2ccc(-c3nnc(C(F)F)o3)cn2)c2cccc(F)c2)C1"
reported = "1,543 fold"

[[record]]
molecule = "O=C(N(Cc1ccc(-c2nnc(C(F)F)o2)cn1)c1cccc(F)c1)C1(F)CN(C2CCC(F)(F)CC2)C1"
reported = "1,385 fold"

[[record]]
molecule = "CN(C)CCCC(=O)N1CC(F)(C(=O)N(Cc2ccc(-c3nnc(C(F)F)o3)cn2)c2ccccc2)C1"
reported = "1,945 fold"

[[record]]
molecule = "O=C(C1CCC1)N1CC(F)(C(=O)N(Cc2ccc(-c3nnc(C(F)F)o3)cn2)c2cccc(F)c2)C1"
reported = "2,906 fold"

[[record]]
molecule = "CCCN1CC(N2CCC(F)(C(=O)N(Cc3ccc(-c4nnc(C(F)F)o4)cn3)c3cccc(F)c3)CC2)C1"
reported = "1,015 fold"

[[record]]
molecule = "O=C(N(Cc1ccc(-c2nnc(C(F)F)o2)cc1F)c1ccccc1)C1(F)CCN(C2COC2)CC1"
reported = "464 fold"

[[record]]
molecule = "O=C(N1CC(F)(C(=O)N(Cc2ccc(-c3nnc(C(F)F)o3)cc2F)c2ccccc2)C1)C(F)(F)F"
reported = "325 fold"

[[record]]
molecule = "CCN1CCC(N2CC(F)(C(=O)N(Cc3ccc(-c4nnc(C(F)F)o4)cn3)c3ccccc3)C2)CC1"
reported = "931 fold"

[[record]]
molecule = "CCCCN1CC(F)(C(=O)N(Cc2ccc(-c3nnc(C(F)F)o3)cn2)c2ccccc2)C1"
reported = "735 fold"

[[record]]
molecule = "O=C(N(Cc1ccc(-c2nnc(C(F)F)o2)cn1)c1cccc(F)c1)C1(F)CN(C2CCN(C3CCOC3)CC2)C1 (centres unmarked)"
reported = "1,135 fold"

[[record]]
molecule = "CC(C)CN1CC(F)(C(=O)N(Cc2ccc(-c3nnc(C(F)F)o3)cn2)c2ccccc2)C1"
reported = "917 fold"

[[record]]
molecule = "CC(C)N1CCC(N2CC(F)(C(=O)N(Cc3ccc(-c4nnc(C(F)F)o4)cn3)c3ccccc3)C2)CC1"
reported = "2,040 fold"

[[record]]
molecule = "O=C(N(Cc1ccc(-c2nnc(C(F)F)o2)cn1)c1cccc(F)c1)C1(F)CN(C2CCN(C3CCCC3)CC2)C1"
reported = "2,581 fold"

[[record]]
molecule = "O=C(N(Cc1ccc(-c2nnc(C(F)F)o2)cn1)c1cccc(F)c1)C1(F)CN(C2CN(C3CCOCC3)C2)C1"
reported = "1,569 fold"

[[record]]
molecule = "CCC(=O)N1CC(F)(C(=O)N(Cc2ccc(-c3nnc(C(F)F)o3)cn2)c2ccccc2)C1"
reported = "1,347 fold"

[[record]]
molecule = "CCN1CC(F)(C(=O)N(Cc2ccc(-c3nnc(C(F)F)o3)cc2F)c2ccccc2)C1"
reported = "624 fold"

[[record]]
molecule = "CCN1CCC(F)(C(=O)N(Cc2ccc(-c3nnc(C(F)F)o3)cc2F)c2ccccc2)CC1"
reported = "97 fold"

[[record]]
molecule = "COCCC(=O)N1CC(F)(C(=O)N(Cc2ccc(-c3nnc(C(F)F)o3)cn2)c2ccccc2)C1"
reported = "941 fold"

[[record]]
molecule = "CN(C)CCC(=O)N1CC(F)(C(=O)N(Cc2ccc(-c3nnc(C(F)F)o3)cn2)c2ccccc2)C1"
reported = "2,032 fold"

[[record]]
molecule = "CC(=O)N1CC(F)(C(=O)N(Cc2ccc(-c3nnc(C(F)F)o3)cn2)c2cccc(F)c2)C1"
reported = "2,808 fold"

[[record]]
molecule = "O=C(N(Cc1ccc(-c2nnc(C(F)F)o2)cn1)c1cccc(F)c1)C1(F)CCN(C2CCC2)CC1"
reported = "740 fold"

[[record]]
molecule = "CC(C)N1CC(F)(C(=O)N(Cc2ccc(-c3nnc(C(F)F)o3)cn2)c2ccccc2)C1"
reported = "1,054 fold"

[[record]]
molecule = "CC(C)CN1CC(N2CC(F)(C(=O)N(Cc3ccc(-c4nnc(C(F)F)o4)cn3)c3cccc(F)c3)C2)C1"
reported = "1,424 fold"

[[record]]
molecule = "CC(C)N1CC(F)(C(=O)N(Cc2ccc(-c3nnc(C(F)F)o3)cc2F)c2ccccc2)C1"
reported = "544 fold"

[[record]]
molecule = "O=C(N(Cc1ccc(-c2nnc(C(F)F)o2)cn1)c1cccc(F)c1)C1(F)CN(C2CN(C3CCCCC3)C2)C1"
reported = "1,374 fold"

[[record]]
molecule = "CN1CC(N2CC(F)(C(=O)N(Cc3ccc(-c4nnc(C(F)F)o4)cn3)c3ccccc3)C2)C1"
reported = "771 fold"


* * *

# System tested: human recombinant HDAC1 (Homo sapiens, UniProt Q13547)
# Sequence (Q13547 whole entry): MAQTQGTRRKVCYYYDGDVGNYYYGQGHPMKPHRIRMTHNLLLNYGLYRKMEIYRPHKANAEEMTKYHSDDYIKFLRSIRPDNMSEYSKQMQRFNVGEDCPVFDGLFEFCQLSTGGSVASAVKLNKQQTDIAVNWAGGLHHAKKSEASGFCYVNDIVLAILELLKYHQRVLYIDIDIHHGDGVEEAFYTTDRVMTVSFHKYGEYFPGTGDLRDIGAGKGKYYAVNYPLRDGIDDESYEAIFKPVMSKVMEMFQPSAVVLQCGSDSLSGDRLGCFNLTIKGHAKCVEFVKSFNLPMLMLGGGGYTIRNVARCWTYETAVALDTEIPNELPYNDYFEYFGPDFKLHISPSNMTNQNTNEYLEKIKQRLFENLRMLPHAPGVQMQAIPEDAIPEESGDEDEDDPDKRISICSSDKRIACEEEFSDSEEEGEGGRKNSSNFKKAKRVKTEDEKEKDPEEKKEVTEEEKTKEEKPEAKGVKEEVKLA
# Procedure text: HDAC enzyme activity inhibition assay (HDAC Fluorimetric Drug Discovery Kit), HDAC1
# Conditions used: human recombinant HDAC1, Fluor de Lys-SIRT1 substrate, 30° C. 60 minutes
Test readout: IC50

[[record]]
molecule = "O=C(N(Cc1ccc(-c2nnc(C(F)F)o2)cn1)c1cccc(F)c1)C1(F)CN(C2CCN(C3CCCC3)CC2)C1 [Compound 3407]"
reported = "48 µM"

[[record]]
molecule = "O=C(N(Cc1ccc(-c2nnc(C(F)F)o2)cn1)c1cccc(F)c1)C1(F)CN(CC2CCOCC2)C1 [Compound 3218]"
reported = "> 50 µM"

[[record]]
molecule = "CC(C)CN1CCC(N2CC(F)(C(=O)N(Cc3ccc(-c4nnc(C(F)F)o4)cn3)c3cccc(F)c3)C2)CC1 [Compound 3403]"
reported = "26.3 µM"

[[record]]
molecule = "O=C(N(Cc1ccc(-c2nnc(C(F)F)o2)cc1F)c1ccccc1)C1(F)CCNCC1 [Compound 2865, 2,2,2-trifluoroacetate]"
reported = "> 30 µM"

[[record]]
molecule = "CN1CCC(F)(C(=O)N(Cc2ccc(-c3nnc(C(F)F)o3)cn2)c2ccccc2)CC1 [Compound 2951]"
reported = "42.6 µM"

[[record]]
molecule = "O=C(N(Cc1ccc(-c2nnc(C(F)F)o2)cn1)c1cccc(F)c1)C1(F)CN(C2CCOC2)C1 (centres unmarked) [Compound 3052]"
reported = "> 50 µM"

[[record]]
molecule = "CN1CC(N2CCC(F)(C(=O)N(Cc3ccc(-c4nnc(C(F)F)o4)cn3)c3cccc(F)c3)CC2)C1 [Compound 3389]"
reported = "28.5 µM"

[[record]]
molecule = "CCCN1CCC(N2CC(F)(C(=O)N(Cc3ccc(-c4nnc(C(F)F)o4)cn3)c3ccccc3)C2)CC1 [Compound 3112]"
reported = "> 50 µM"

[[record]]
molecule = "CCC(=O)N1CC(F)(C(=O)N(Cc2ccc(-c3nnc(C(F)F)o3)cn2)c2cccc(F)c2)C1 [Compound 3163]"
reported = "> 50 µM"

[[record]]
molecule = "O=C(N(Cc1ccc(-c2nnc(C(F)F)o2)cn1)c1ccccc1)C1(F)CN(C2CCCCC2)C1 [Compound 2999]"
reported = "> 50 µM"

[[record]]
molecule = "O=C(N(Cc1ccc(-c2nnc(C(F)F)o2)cn1)c1cccc(F)c1)C1(F)CN(C2CCSCC2)C1 [Compound 3172]"
reported = "> 50 µM"

[[record]]
molecule = "CC(C)N1CC(F)(C(=O)N(Cc2ccc(-c3nnc(C(F)F)o3)cc2F)c2ccccc2)C1 [Compound 3431]"
reported = "> 50 µM"

[[record]]
molecule = "CCCCN1CC(F)(C(=O)N(Cc2ccc(-c3nnc(C(F)F)o3)cn2)c2ccccc2)C1 [Compound 3003]"
reported = "27.5 µM"

[[record]]
molecule = "O=C(N(Cc1ccc(-c2nnc(C(F)F)o2)cn1)c1cccc(F)c1)C1(F)CN(C2CN(C3CCCCC3)C2)C1 [Compound 3398]"
reported = "27.5 µM"

[[record]]
molecule = "O=C(N(Cc1ccc(-c2nnc(C(F)F)o2)cn1)c1ccccc1)C1(F)CN(C2CCSCC2)C1 [Compound 3162]"
reported = "> 50 µM"

[[record]]
molecule = "O=C(C1CCC1)N1CC(F)(C(=O)N(Cc2ccc(-c3nnc(C(F)F)o3)cn2)c2cccc(F)c2)C1 [Compound 3168]"
reported = "> 50 µM"

[[record]]
molecule = "O=C(N(Cc1ccc(-c2nnc(C(F)F)o2)cn1)c1cccc(F)c1)C1(F)CN(C2CN(C3CCOC3)C2)C1 (centres unmarked) [Compound 3397]"
reported = "23.7 µM"

[[record]]
molecule = "CC(C)N1CC(N2CC(F)(C(=O)N(Cc3ccc(-c4nnc(C(F)F)o4)cn3)c3cccc(F)c3)C2)C1 [Compound 3224]"
reported = "> 50 µM"

[[record]]
molecule = "CCCC(=O)N1CC(F)(C(=O)N(Cc2ccc(-c3nnc(C(F)F)o3)cn2)c2ccccc2)C1 [Compound 3154]"
reported = "> 50 µM"

[[record]]
molecule = "O=C(C1CCC1)N1CC(F)(C(=O)N(Cc2ccc(-c3nnc(C(F)F)o3)cn2)c2ccccc2)C1 [Compound 3159]"
reported = "> 50 µM"

[[record]]
molecule = "CCN1CC(N2CC(F)(C(=O)N(Cc3ccc(-c4nnc(C(F)F)o4)cn3)c3ccccc3)C2)C1 [Compound 3106]"
reported = "> 50 µM"

[[record]]
molecule = "CC(=O)N1CC(F)(C(=O)N(Cc2ccc(-c3nnc(C(F)F)o3)cc2F)c2ccccc2)C1 [Compound 3432]"
reported = "29.1 µM"

[[record]]
molecule = "CCC(=O)N1CC(F)(C(=O)N(Cc2ccc(-c3nnc(C(F)F)o3)cn2)c2ccccc2)C1 [Compound 3153]"
reported = "> 50 µM"

[[record]]
molecule = "CS(=O)(=O)N1CC(F)(C(=O)N(Cc2ccc(-c3nnc(C(F)F)o3)cc2F)c2ccccc2)C1 [Compound 3436]"
reported = "> 50 µM"

[[record]]
molecule = "CC(C)CN1CC(N2CC(F)(C(=O)N(Cc3ccc(-c4nnc(C(F)F)o4)cn3)c3cccc(F)c3)C2)C1 [Compound 3223]"
reported = "> 50 µM"

[[record]]
molecule = "CC(C)C(=O)N1CCC(F)(C(=O)N(Cc2ccc(-c3nnc(C(F)F)o3)cc2F)c2ccccc2)CC1 [Compound 3440]"
reported = "> 50 µM"

[[record]]
molecule = "CCN1CCC(F)(C(=O)N(Cc2ccc(-c3nnc(C(F)F)o3)cc2F)c2ccccc2)CC1 [Compound 2867]"
reported = "> 20 µM"

[[record]]
molecule = "O=C(N(Cc1ccc(-c2nnc(C(F)F)o2)cn1)c1ccccc1)C1(F)CN(CC2CCOCC2)C1 [Compound 3216]"
reported = "> 50 µM"

[[record]]
molecule = "CCN1CC(F)(C(=O)N(Cc2ccc(-c3nnc(C(F)F)o3)cc2F)c2ccccc2)C1 [Compound 3430]"
reported = "> 50 µM"

